pIC50: −log10 of the molar value.
measuredQuantity: pIC50

Task item: Param readout = pIC50; param system = UniProtKB Q92918; param query = CC1CCCN(C(=O)c2ccc(-c3cc(Nc4ccc(N5CCC(O)CC5)cn4)c4c(=O)[nH]ccc4n3)c(F)c2)C1 (stereo not shown) ; response: value
Reply: ≥ 7.00

Task item: Param readout = pIC50; param system = UniProtKB Q92918; param query = CC(C)c1ccc(F)c(-c2cc(Nc3ccc(N4[C@H](C)COC[C@H]4C)cn3)c3c(=O)[nH]ccc3n2)c1 ; response: value
Reply: 6.00 to 7.00

Task item: Param readout = pIC50; param system = UniProtKB Q92918; param query = COc1cc(-c2cc(Nc3ccc(N4CCC(O)CC4)cn3)c3c(=O)[nH]ccc3n2)c(F)cc1C(=O)N1CCCC1 ; response: value
Reply: ≥ 7.00

Task item: Param readout = pIC50; param system = UniProtKB Q92918; param query = O=C(Nc1ccc(-c2cc(Nc3ccc(N4CCC(O)CC4)cn3)c3c(=O)[nH]ccc3n2)c(F)c1)C1CCC1 ; response: value
Reply: 6.00 to 7.00

* * *

assayedSystem: HPK1 (Homo sapiens)
Sequence (Q92918 whole entry): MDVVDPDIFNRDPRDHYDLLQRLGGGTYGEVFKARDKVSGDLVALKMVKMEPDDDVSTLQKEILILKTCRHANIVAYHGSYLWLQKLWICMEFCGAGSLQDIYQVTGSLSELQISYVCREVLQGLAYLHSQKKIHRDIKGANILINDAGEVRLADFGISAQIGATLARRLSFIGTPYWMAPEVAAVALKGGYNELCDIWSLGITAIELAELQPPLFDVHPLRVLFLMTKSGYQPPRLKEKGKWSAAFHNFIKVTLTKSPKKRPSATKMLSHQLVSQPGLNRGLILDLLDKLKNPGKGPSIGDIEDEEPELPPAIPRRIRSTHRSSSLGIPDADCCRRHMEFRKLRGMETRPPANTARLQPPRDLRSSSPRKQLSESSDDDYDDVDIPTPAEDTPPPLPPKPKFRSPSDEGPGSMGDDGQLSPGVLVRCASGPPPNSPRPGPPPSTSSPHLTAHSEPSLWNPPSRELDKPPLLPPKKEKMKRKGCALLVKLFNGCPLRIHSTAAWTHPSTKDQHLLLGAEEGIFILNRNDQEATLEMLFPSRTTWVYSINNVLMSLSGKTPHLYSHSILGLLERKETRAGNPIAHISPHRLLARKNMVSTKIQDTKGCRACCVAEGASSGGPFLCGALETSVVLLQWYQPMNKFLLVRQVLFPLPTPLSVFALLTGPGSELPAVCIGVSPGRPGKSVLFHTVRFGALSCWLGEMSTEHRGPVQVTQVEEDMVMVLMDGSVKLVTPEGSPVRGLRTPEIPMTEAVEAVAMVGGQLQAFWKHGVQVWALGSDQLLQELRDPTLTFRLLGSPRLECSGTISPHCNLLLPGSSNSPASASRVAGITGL
pIC50: −log10 of the molar value.
measuredQuantity: pIC50

Task item: Param readout = pIC50; param system = HPK1 (Homo sapiens); param query = COc1cc(-c2cc(Nc3ccc(N4CCC(O)CC4)cn3)c3c(=O)[nH]ccc3n2)c(F)c(F)c1C(=O)N1CCCCC1 [I-241] ; response: value
Reply: 6.00 to 7.00

Task item: Param readout = pIC50; param system = HPK1 (Homo sapiens); param query = CC1(C(=O)Nc2ccc(-c3cc(Nc4ccc(N5CCC(O)CC5)cn4)c4c(=O)[nH]ccc4n3)c(F)c2)CC1 [I-153] ; response: value
Reply: 6.00 to 7.00

Task item: Param readout = pIC50; param system = HPK1 (Homo sapiens); param query = CN(C)C(=O)c1ccc(-c2cc(Nc3ccc(N4CCC(O)CC4)cn3)c3c(=O)[nH]ccc3n2)c(F)c1 [I-62] ; response: value
Reply: 6.00 to 7.00

Task item: Param readout = pIC50; param system = HPK1 (Homo sapiens); param query = CNC1CCc2cc(F)c(-c3cc(Nc4ccc(N5CCC(O)CC5)cn4)c4c(=O)[nH]ccc4n3)cc21 (stereo not drawn) [I-200] ; response: value
Reply: ≥ 7.00

Task item: Param readout = pIC50; param system = HPK1 (Homo sapiens); param query = O=C(Nc1ccc(-c2cc(Nc3ccc(N4CCC(O)CC4)cn3)c3c(=O)[nH]ccc3n2)c(F)c1)[C@@H]1C[C@H]2CC[C@@H]1C2 (single isomer, unassigned) [I-269] ; response: value
Reply: 6.00 to 7.00

Task item: Param readout = pIC50; param system = HPK1 (Homo sapiens); param query = CC1(Cc2cc(Nc3ccc(N4CCC(O)CC4)cn3)c3c(=O)[nH]ccc3n2)COC1 [I-54] ; response: value
Reply: 6.00 to 7.00

Task item: Param readout = pIC50; param system = HPK1 (Homo sapiens); param query = CCOC(=O)C(C)(C)c1ccc(Nc2cc(-c3c(F)cccc3F)nc3cc[nH]c(=O)c23)nc1 [I-53] ; response: value
Reply: ≥ 7.00

Task item: Param readout = pIC50; param system = HPK1 (Homo sapiens); param query = COc1cc(-c2cc(Nc3ccc(N4CC(F)(F)C4)cn3)c3c(=O)[nH]ccc3n2)c(F)cc1C(=O)N1CCCCC1 [I-174] ; response: value
Reply: < 6.00

Task item: Param readout = pIC50; param system = HPK1 (Homo sapiens); param query = CC(C)c1cc(Nc2ccc(N3CCN(C)CC3)cn2)c2c(=O)[nH]ccc2n1 [I-57] ; response: value
Reply: ≥ 7.00

Task item: Param readout = pIC50; param system = HPK1 (Homo sapiens); param query = O=c1[nH]cnc2nc(-c3c(F)cccc3F)cc(Nc3ccc(N4CCC(O)CC4)cn3)c12 [I-11] ; response: value
Reply: 6.00 to 7.00

Task item: Param readout = pIC50; param system = HPK1 (Homo sapiens); param query = COc1cc(-c2cc(Nc3ccc(N4CCCCC4)cn3)c3c(=O)[nH]ccc3n2)c(F)cc1C(=O)N1CCCCC1 [I-232] ; response: value
Reply: ≥ 7.00

Task item: Param readout = pIC50; param system = HPK1 (Homo sapiens); param query = O=c1[nH]ccc2nc(-c3ccccc3F)cc(Nc3ccc(N4CCC(O)CC4)cn3)c12 [I-64] ; response: value
Reply: 6.00 to 7.00

Task item: Param readout = pIC50; param system = HPK1 (Homo sapiens); param query = O=c1[nH]ccc2nc(-c3ccc(CN4CCOCC4)cc3F)cc(Nc3ccc(N4CCC(O)CC4)cn3)c12 [I-181] ; response: value
Reply: < 6.00

Task item: Param readout = pIC50; param system = HPK1 (Homo sapiens); param query = Cc1cc(-c2cc(Nc3ccc(N4CCC(O)CC4)cn3)c3c(=O)[nH]ccc3n2)c(F)cc1CN1CCCCC1 [I-194] ; response: value
Reply: ≥ 7.00

Task item: Param readout = pIC50; param system = HPK1 (Homo sapiens); param query = O=c1[nH]ccc2nc(C3CC3)cc(Nc3ccc(N4CCC(O)CC4)cn3)c12 [I-17] ; response: value
Reply: 6.00 to 7.00
